- experimental-target: T1, human big-ET-1 (SEQ ID NO:434) (Homo sapiens, UniProt P05305)
- T1 sequence (P05305 53-90 limits assumed): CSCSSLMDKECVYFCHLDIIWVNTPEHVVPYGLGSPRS
- assay-comment: Surface plasmon resonance (Biacore) binding, mAb capture format, 37° C.
- condition: analyte human big-ET-1, mAb capture
experimental-readout: ka (M/s)
Numbers only, in M/s.

molecule	ka, M/s
H4H6323P: anti-big-ET-1 antibody, human IgG4 Fc; HCVR/LCVR SEQ ID NO: 146/154 (antibody, V domains shown, human IgG4 Fc) VH: QITLKESGPPLVKPTQTLTLTCTFSGFSLNTNGMGVGWIRQPPGKALEWLTLIYWNDDKRYSPSLKTRLTITKDTSKNQVVLTMTNMDPVDTATYYCARFGSGTYWGQGTLVTVSS VL: DIVMTQSPLSLPVTPGEPASISCRSSQSLLHSYGYNFLDWFLQKPGQSPQLLIYLGSHRASGVPDRFSGSGSGTDFTLKISRVEAEDVGVYYCMQALQTPLTFGGGTKVEIK	565000
H4H6317P: anti-big-ET-1 antibody, human IgG4 Fc; HCVR/LCVR SEQ ID NO: 130/138 (antibody, V domains shown, human IgG4 Fc) VH: QVQLVESGGGVVQPGRSLRLSCAASGFTFSSYGMHWVRQAPGKGLEWVAVLWYDGRNKYYADSVKGRFTISRDNSKNTLYLQMNSLRAEDTAVYYCARSYDAFDIWGQGTMVTVSS VL: DIQMTQSPSTLSASVGDRVTITCRASQSISSWLAWFQQGPGRAPKLLIYKASTLQSGVPSRFSGSGSGTEFTLTISSLQPDDFATYYCQQYRSYSPTFGQGTKVEIK	36700
H1M6494N: anti-big-ET-1 hybridoma antibody, H1M Fc; HCVR/LCVR SEQ ID NO: 50/58 (antibody, V domains shown, mouse Fc) VH: EVQLVESGGGLVKPGGSLRVSCVASGFTFSNAWMTWVRQTPGKGLECVGRIKSRTDGGTVDYVAPVKGRFTISRDDSKNTLYLQMNSLKAEDTAVYYCRADLDYWGQGTLVTVSS VL: DVVMTQSPLSLPVSLGQPASISCRSSQSLVHSDGITYLNWFQQRPGQSPRRLIYKISNRDSGVPDRFSGSGSGTDFTLKFSRVEAEDVGVYFCMQGTHWPYTFGQGTKLEIK	239000
H2M6490N: anti-big-ET-1 antibody, mouse IgG2 Fc; HCVR/LCVR SEQ ID NO: 18/26 (antibody, V domains shown, mouse IgG2 Fc) VH: EVQLLESGGGLVQPGGSLRLSCAASGFTFSSYAMTWVRQAPGKGLECISAISGSGYSTYYADSMKGRFSISRDNSKNTLYLQMNRLRAEDTAVYYCTKGGRILEWLLPFDFWGQGTLVTVSS VL: DVVMTQSPLSLPVTLGQPASISCRSSQSLVYSDGNTYLIWFQQRPGQSPRRLIYKVSNRDSGVPDRFSGSGSGTDFTLIISRVEAEDVGLYYCMQGTHWPPTFGGGTKVEIK	209000
H4H6330P: anti-big-ET-1 antibody, human IgG4 Fc; HCVR/LCVR SEQ ID NO: 210/218 (antibody, V domains shown, human IgG4 Fc) VH: EVQLVESGGGLVQPGGSLRLSCAASGFTFSNYAMSWVRQAPGKGLEWVSAVSGSGVGTYYADSVKGRFTISRDNSKNTLYLQMKSLSAEDTALYYCTKTLGGTHAFDIWGQGTMVTVSS VL: DIQMTQSPSTLSASVGDRVTITCRASQSISRWLAWYQQKPGKAPKLLIYKASSLESGVPSRFSGSGSGTEFTVTINSLQPDDFATYYCQQYNSYSSFGQGTKLEIK	1.42e+06

List reported ka for each of these molecules:
1. H4H6329P: anti-big-ET-1 antibody, human IgG4 Fc; HCVR/LCVR SEQ ID NO: 194/202 (antibody, V domains shown, human IgG4 Fc) VH: QVQLVESGGGVVQPGRSLRLSCAASGFTFGSYGMHWVRQAPGKGLEWVAVIWYDGSDEYYTDSVKGRFTVSRDNSKYTLYLQMNSLRADDTAVYYCARDGYRTRGNYFDYWGQGTLVTVSS VL: DVVMTQSPLSLPVALGQPASISCRSSQSLVYSDGNTYLNWFQQRPGQSPRRLIYKVSNRDSGVPDRFGGSGSGTDFTLKISRVEAEDVGLYYCMQGTHWPPTFGGGTKVEIK
2. H1M6492N: anti-big-ET-1 hybridoma antibody, H1M Fc; HCVR/LCVR SEQ ID NO: 34/42 (antibody, V domains shown, mouse Fc) VH: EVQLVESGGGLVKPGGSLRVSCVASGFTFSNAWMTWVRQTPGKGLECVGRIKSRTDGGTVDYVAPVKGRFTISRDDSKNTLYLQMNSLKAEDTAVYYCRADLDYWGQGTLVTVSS VL: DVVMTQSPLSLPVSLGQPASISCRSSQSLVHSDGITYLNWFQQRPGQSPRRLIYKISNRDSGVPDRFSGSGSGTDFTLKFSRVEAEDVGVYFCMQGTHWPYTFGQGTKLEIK

A:
1. 595000
2. 248000
